Hey, just so you know, these numbers are from ChEMBL document CHEMBL2151021.

- assaySystem: Neutral ceramidase (Homo sapiens) (UniProt Q9NR71)
- Sequence (Q9NR71 whole entry): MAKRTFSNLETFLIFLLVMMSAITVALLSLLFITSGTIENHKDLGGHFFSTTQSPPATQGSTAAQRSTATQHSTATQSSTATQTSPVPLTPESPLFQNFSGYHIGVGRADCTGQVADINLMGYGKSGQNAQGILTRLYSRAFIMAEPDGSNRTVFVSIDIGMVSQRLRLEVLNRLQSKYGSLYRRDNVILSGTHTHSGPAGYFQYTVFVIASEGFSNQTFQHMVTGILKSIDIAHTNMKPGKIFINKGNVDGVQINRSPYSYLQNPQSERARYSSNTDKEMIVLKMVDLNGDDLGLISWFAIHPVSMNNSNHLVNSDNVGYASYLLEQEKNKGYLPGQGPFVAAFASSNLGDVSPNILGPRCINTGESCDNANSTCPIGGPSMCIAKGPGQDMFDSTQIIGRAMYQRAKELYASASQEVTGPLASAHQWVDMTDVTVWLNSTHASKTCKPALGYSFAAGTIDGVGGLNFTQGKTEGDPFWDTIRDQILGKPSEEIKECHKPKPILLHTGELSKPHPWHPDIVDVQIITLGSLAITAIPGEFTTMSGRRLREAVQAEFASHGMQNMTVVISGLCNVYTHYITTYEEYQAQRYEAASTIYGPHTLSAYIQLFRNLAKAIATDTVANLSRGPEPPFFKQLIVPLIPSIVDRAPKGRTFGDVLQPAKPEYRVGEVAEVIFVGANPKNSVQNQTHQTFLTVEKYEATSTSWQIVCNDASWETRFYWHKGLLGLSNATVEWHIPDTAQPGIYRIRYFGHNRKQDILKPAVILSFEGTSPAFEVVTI
- assayComment: Inhibition of recombinant human nCDase expressed in Sf9 cells using fluorescently-labeled acyl-NBD-C12-ceramide as substrate at 80 uM after 2 hrs by fluorescence assay
Active and inactive are the calls of the source. The rule behind the calls is not given here.
Your answer must be one of the following: Yes (active), No (inactive)

// known answers, use as guide
compound	groupLabel
CCCCCCCCCCCCCC(=O)NCC(=O)c1cccc(C)c1	Yes
CCCCCCCCCCCCCC(=O)NCC(O)c1ccc(C)cc1 (single isomer, unassigned; (-))	Yes
CCCCCCCCCCCCCC(=O)NCC(O)c1ccc(C(C)(C)C)cc1 (racemic)	No
CCCCCCCCCCCCS(=O)(=O)NCC(O)c1ccccc1 (racemic)	Yes
CCCCCCCCCCCCCC(=O)NCC(O)c1cccc(OC)c1 (racemic)	Yes
CCCCCCCCCCCCS(=O)(=O)NCC(O)c1cccnc1 (racemic)	Yes
CCCCCCCCCCCCCC(=O)NCC(O)c1ccc(C)cc1 (stereo in doubt)	Yes
CCCCCCCCCCCCS(=O)(=O)N[C@H](C)[C@@H](O)c1ccccc1	Yes
CCCCCCCCCCCCCC(=O)NCC(O)c1ccncc1 (racemic)	Yes

Input line: Which outcome was assigned to CCCCCCCCCCCCCC(=O)NCC(O)c1ccc(CCC)cc1 (racemic) in this test?
Output line: No

###

- assaySystem: Acid ceramidase (Homo sapiens)
- Sequence (whole entry): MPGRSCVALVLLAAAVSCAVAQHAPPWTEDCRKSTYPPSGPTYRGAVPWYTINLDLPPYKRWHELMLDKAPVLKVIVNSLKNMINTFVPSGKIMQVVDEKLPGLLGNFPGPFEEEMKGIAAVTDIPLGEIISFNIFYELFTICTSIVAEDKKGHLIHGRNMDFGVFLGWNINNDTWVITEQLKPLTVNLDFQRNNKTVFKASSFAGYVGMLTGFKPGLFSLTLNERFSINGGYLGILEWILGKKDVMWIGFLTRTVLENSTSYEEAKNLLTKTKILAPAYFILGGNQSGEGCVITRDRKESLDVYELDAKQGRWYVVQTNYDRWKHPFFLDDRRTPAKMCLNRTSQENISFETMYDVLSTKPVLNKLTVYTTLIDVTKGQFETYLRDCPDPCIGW
- assayComment: Inhibition of recombinant human aCDase expressed in Sf9 cells using fluorescently-labeled acyl-NBD-C12-ceramide as substrate at 80 uM after 8 hrs by fluorescence assay
Activity calls are given as the source filed them. No cut-off for these calls is given here.
The categories you may choose from are 1 for active, 0 for inactive

Input line: Recorded test call requested for CCCCCCCCCCCCS(=O)(=O)NCC(O)c1ccccc1 (racemic)
Output line: 1

Input line: Call for entry CCCCCCCCCCCCCC(=O)NCC(O)c1ccccc1 (racemic) :
Output line: 1

Input line: So what was the verdict on CCCCCCCCCCCCCC(=O)NCC(O)c1ccc(C(C)(C)C)cc1 (racemic) in this test?
Output line: 1

###

- assaySystem: Acid ceramidase (Homo sapiens)
- assayComment: Inhibition of aCDase expressed in human HL60 cell extract
- Type: cell-free, HL-60
assayEndpoint: IC50 (nM)
Please respond with the number in nM and leave the unit unwritten.

Input line: Requested read-out: IC50. Entry: CCCCCCCCCCCCCC(=O)N[C@H](C)[C@@H](O)c1ccccc1
Output line: 1000

###

- assaySystem: Acid ceramidase (Homo sapiens) (UniProt Q13510)
- assayComment: Inhibition of recombinant human aCDase expressed in Sf9 cells using fluorescently-labeled acyl-NBD-C12-ceramide as substrate at 80 uM after 8 hrs by fluorescence assay
Activity calls are given as the source filed them. The calls are words filed in the database; no cut-off is given here.
Please answer using one outcome listed in y = active, n = inactive

compound	assaySystem	groupLabel
CCCCCCCCCCCCCC(=O)NCC(O)c1cccnc1 (racemic)	Acid ceramidase (Homo sapiens) (UniProt Q13510)	y
CCCCCCCCCCCCCC(=O)NCC(=O)c1ccc(C)cc1	Acid ceramidase (Homo sapiens) (UniProt Q13510)	y
CCCCCCCCCCCCCC(=O)NCC(O)c1ccc(C)cc1 (single isomer, unassigned; (-))	Acid ceramidase (Homo sapiens) (UniProt Q13510)	y
CCCCCCCCCCCCCC(=O)NCC(O)c1cccc(OC)c1 (racemic)	Acid ceramidase (Homo sapiens) (UniProt Q13510)	n
CCCCCCCCCCCCCC(=O)NCC(O)c1cccc(O)c1 (racemic)	Acid ceramidase (Homo sapiens) (UniProt Q13510)	y
CCCCCCCCCCCCCC(=O)NCC(O)c1ccc(C)cc1 (racemic)	Acid ceramidase (Homo sapiens) (UniProt Q13510)	y
CCCCCCCCCCCCCC(=O)NCC(O)c1ccc(CCC)cc1 (racemic)	Acid ceramidase (Homo sapiens) (UniProt Q13510)	y
CCCCCCCCCCCCS(=O)(=O)N[C@H](CO)[C@H](O)c1ccc([N+](=O)[O-])cc1	Acid ceramidase (Homo sapiens) (UniProt Q13510)	y

Input line: Write down the call the test reported for this compound. Item: CCCCCCCCCCCCCC(=O)NCC(O)c1ccc(C)cc1 (stereo in doubt)
Output line: y

Input line: For CCCCCCCCCCCCCC(=O)NCC(=O)c1cccc(C)c1 , which call appears in the assay record?
Output line: y

Input line: Give the logged outcome of this assay for the following compound: CCCCCCCCCCCCS(=O)(=O)NCC(O)c1ccc(C)cc1 (racemic)
Output line: y

Input line: Please indicate how the test categorized CCCCCCCCCCCCCC(=O)NCC(O)c1ccc(OC)cc1 (racemic) .
Output line: n

Input line: Give the logged outcome of this assay for the following compound: CCCCCCCCCCCCCC(=O)NCC(O)c1ccc(CCCC)cc1 (racemic)
Output line: n

Input line: Status in this test for CCCCCCCCCCCCCC(=O)N[C@H](C)[C@@H](O)c1ccccc1 ?
Output line: y

Input line: What did this assay record as the result for CCCCCCCCCCCCCC(=O)NCC(O)c1ccc(O)cc1 (racemic) ?
Output line: y
